Recorded viability, T/C for the following compounds
tested on: 885512-296-R-J2-PDC complex spheroid growth, % test/control; assay: Anticancer human tumor 885512-296-R-J2-PDC patient-derived breast carcinoma cell line growth inhibition [AhR]; settings: second compound 1 µM; first compound 0.1 µM; stronger effect = lower value
Answer with a number only, understood to be in %.

Known results for compounds:
compound: CC[C@@]1(O)C(=O)OCc2c1cc1n(c2=O)Cc2cc3c(CN(C)C)c(O)ccc3nc2-1 + Cc1cncc(-c2nc(NCCc3c[nH]c4ccccc34)c3ncn(C(C)C)c3n2)c1
unit abbrev: %
viability, T/C: 6.23

compound: CC1COCCN1c1cc(C2(S(C)(=N)=O)CC2)nc(-c2ccnc3[nH]ccc23)n1 (stereo not given) + Cc1cncc(-c2nc(NCCc3c[nH]c4ccccc34)c3ncn(C(C)C)c3n2)c1
unit abbrev: %
viability, T/C: 86.1

get_value(item= CC[C@@]1(O)C(=O)OCc2c1cc1n(c2=O)Cc2cc3c(CN(C)C)c(O)ccc3nc2-1 + Cc1ccccc1N=Nc1ccc(NC(=O)c2ccnn2C)c(C)c1 , readout=viability, T/C) returns 8.35

get_value(item= Nc1ncn(C2CC(O)C(CO)O2)c(=O)n1 (stereo not given) + CC(CO)NC(=O)c1cc(-c2ccc(Cl)cc2)nn(-c2cnn(C)c2)c1=O , readout=viability, T/C) returns 92.9

get_value(item= COc1ccc([C@@H](O)c2cc(-c3ncnc4cc(N5CCOCC5)ccc34)c(F)cc2Cl)nn1 + CC(CO)NC(=O)c1cc(-c2ccc(Cl)cc2)nn(-c2cnn(C)c2)c1=O , readout=viability, T/C) returns 112

get_value(item= Nc1ccccc1NC(=O)c1ccc(CNC(=O)OCc2cccnc2)cc1 + CC(CO)NC(=O)c1cc(-c2ccc(Cl)cc2)nn(-c2cnn(C)c2)c1=O , readout=viability, T/C) returns 80.2

get_value(item= CC1COCCN1c1cc(C2(S(C)(=N)=O)CC2)nc(-c2ccnc3[nH]ccc23)n1 (stereo not given) + Cc1ccccc1N=Nc1ccc(NC(=O)c2ccnn2C)c(C)c1 , readout=viability, T/C) returns 117

get_value(item= COc1cccc2c1C(=O)c1c(O)c3c(c(O)c1C2=O)CC(O)(C(=O)CO)CC3OC1CC(N)C(O)C(C)O1 (stereo not given) + Cc1cncc(-c2nc(NCCc3c[nH]c4ccccc34)c3ncn(C(C)C)c3n2)c1 , readout=viability, T/C) returns 17.9

get_value(item= O=C(c1cc(Cc2n[nH]c(=O)c3ccccc23)ccc1F)N1CCN(C(=O)C2CC2)CC1 + Cc1cncc(-c2nc(NCCc3c[nH]c4ccccc34)c3ncn(C(C)C)c3n2)c1 , readout=viability, T/C) returns 82.7

get_value(item= Nc1ccccc1NC(=O)c1ccc(CNC(=O)OCc2cccnc2)cc1 + Cc1ccccc1N=Nc1ccc(NC(=O)c2ccnn2C)c(C)c1 , readout=viability, T/C) returns 91.5

* * *

Recorded IC50 for the following compounds
System: 885512-296-R-J2-PDC complex spheroid growth, % test/control
Experiment: Anticancer human tumor 885512-296-R-J2-PDC cell line growth inhibition [AhR];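 also: spheroids exposed to compounds for seven days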
Conditions: curve of first compound; second compound 1 µM
Description: Multicellular complex tumor spheroid response to aryl hydrocarbon receptor antagonists in combination with a variety of drugs and investigational agents in selected tumor cell lines […] Compounds. […] If the clinical Cmax for an agent had not been determined, the highest concentration tested was 10 microM (Table 1). […]

compound: CC(C)c1c(-c2ccccc2)nc2c(C#N)c[nH]n2c1=O + Cc1cncc(-c2nc(NCCc3c[nH]c4ccccc34)c3ncn(C(C)C)c3n2)c1
assayed target: 885512-296-R-J2-PDC complex spheroid growth, % test/control
IC50: > 10000 nM
--
compound: CCc1c2c(nc3ccc(O)cc13)-c1cc3c(c(=O)n1C2)COC(=O)[C@]3(O)CC + Cc1cncc(-c2nc(NCCc3c[nH]c4ccccc34)c3ncn(C(C)C)c3n2)c1
assayed target: 885512-296-R-J2-PDC complex spheroid growth, % test/control
IC50: < 0.949 nM
--
compound: COc1cccc2c1C(=O)c1c(O)c3c(c(O)c1C2=O)CC(O)(C(=O)CO)CC3OC1CC(N)C(O)C(C)O1 (stereo not drawn) + Cc1cncc(-c2nc(NCCc3c[nH]c4ccccc34)c3ncn(C(C)C)c3n2)c1
assayed target: 885512-296-R-J2-PDC complex spheroid growth, % test/control
IC50: < 31.6 nM
--
compound: CCc1c2c(nc3ccc(O)cc13)-c1cc3c(c(=O)n1C2)COC(=O)[C@]3(O)CC + CC(CO)NC(=O)c1cc(-c2ccc(Cl)cc2)nn(-c2cnn(C)c2)c1=O
assayed target: 885512-296-R-J2-PDC complex spheroid growth, % test/control
IC50: < 0.949 nM
--
compound: CCN(c1cc(-c2ccc(CN3CCOCC3)cc2)cc(C(=O)NCc2c(C)cc(C)[nH]c2=O)c1C)C1CCOCC1 + Cc1ccccc1N=Nc1ccc(NC(=O)c2ccnn2C)c(C)c1
assayed target: 885512-296-R-J2-PDC complex spheroid growth, % test/control
IC50: > 3000 nM
--
compound: COc1cccc2c1C(=O)c1c(O)c3c(c(O)c1C2=O)CC(O)(C(=O)CO)CC3OC1CC(N)C(O)C(C)O1 (stereo not drawn) + Cc1ccccc1N=Nc1ccc(NC(=O)c2ccnn2C)c(C)c1
assayed target: 885512-296-R-J2-PDC complex spheroid growth, % test/control
IC50: < 31.6 nM
--
compound: Cn1ncnc1C1c2n[nH]c(=O)c3cc(F)cc(c23)NC1c1ccc(F)cc1 (stereo not drawn) + CC(CO)NC(=O)c1cc(-c2ccc(Cl)cc2)nn(-c2cnn(C)c2)c1=O
assayed target: 885512-296-R-J2-PDC complex spheroid growth, % test/control
IC50: > 100 nM

Consider the additional compound presented here.
get_value(item= CCc1c2c(nc3ccc(O)cc13)-c1cc3c(c(=O)n1C2)COC(=O)[C@]3(O)CC + Cc1ccccc1N=Nc1ccc(NC(=O)c2ccnn2C)c(C)c1 , readout=IC50) returns < 0.949 nM
